Tested on: Hs746T
Test: Antiproliferative activity against human Hs746T cells assessed as reduction in cell viability incubated for 72 hrs by WST-8 assay
Assay type: functional, cell-based
pIC50: −log10 of the molar value.

{"Mol": "Cn1cc(-c2ccc(=O)n(C[C@@H]3CN(c4ncc(OCC5CCNCC5)cn4)CCO3)n2)cn1", "pIC50": 5.50}

###

Target: Hepatocyte growth factor receptor (Homo sapiens, UniProt P08581)
Sequence (P08581 whole entry): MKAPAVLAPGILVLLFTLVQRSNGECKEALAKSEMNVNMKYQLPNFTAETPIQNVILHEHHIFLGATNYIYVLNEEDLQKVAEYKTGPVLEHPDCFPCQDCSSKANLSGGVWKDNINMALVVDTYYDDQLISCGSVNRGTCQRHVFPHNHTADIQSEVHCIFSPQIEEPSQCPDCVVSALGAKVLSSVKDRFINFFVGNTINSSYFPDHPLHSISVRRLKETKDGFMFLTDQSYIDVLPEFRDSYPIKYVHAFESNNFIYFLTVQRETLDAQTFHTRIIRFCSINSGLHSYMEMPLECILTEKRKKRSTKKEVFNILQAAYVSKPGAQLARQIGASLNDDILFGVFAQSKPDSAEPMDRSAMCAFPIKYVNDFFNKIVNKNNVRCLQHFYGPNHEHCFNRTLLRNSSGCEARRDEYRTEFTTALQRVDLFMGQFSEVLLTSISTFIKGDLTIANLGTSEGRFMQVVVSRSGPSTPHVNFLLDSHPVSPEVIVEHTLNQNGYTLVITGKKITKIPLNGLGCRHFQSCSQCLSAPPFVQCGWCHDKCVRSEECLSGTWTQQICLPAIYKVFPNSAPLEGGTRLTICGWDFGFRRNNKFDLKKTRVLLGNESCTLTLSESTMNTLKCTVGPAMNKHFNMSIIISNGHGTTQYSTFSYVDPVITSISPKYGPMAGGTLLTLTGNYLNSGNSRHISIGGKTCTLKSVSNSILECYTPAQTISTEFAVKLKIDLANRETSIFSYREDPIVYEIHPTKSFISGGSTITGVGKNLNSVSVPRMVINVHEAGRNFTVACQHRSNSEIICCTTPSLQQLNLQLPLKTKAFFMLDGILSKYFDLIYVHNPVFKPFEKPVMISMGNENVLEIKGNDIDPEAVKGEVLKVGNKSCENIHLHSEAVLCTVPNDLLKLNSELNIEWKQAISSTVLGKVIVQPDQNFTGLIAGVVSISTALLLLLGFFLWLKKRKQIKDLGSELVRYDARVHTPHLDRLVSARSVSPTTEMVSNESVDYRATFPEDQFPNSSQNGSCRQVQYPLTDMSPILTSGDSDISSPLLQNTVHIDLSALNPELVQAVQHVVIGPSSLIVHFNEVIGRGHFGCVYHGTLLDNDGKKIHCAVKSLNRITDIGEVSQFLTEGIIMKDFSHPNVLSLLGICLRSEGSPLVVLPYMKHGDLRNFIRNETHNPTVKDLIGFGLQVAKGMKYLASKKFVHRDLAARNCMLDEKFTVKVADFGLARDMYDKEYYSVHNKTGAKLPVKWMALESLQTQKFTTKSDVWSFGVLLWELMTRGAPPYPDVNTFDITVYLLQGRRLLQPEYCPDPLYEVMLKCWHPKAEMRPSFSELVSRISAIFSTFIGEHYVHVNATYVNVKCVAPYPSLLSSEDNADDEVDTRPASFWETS
Assay: Inhibition of c-Met (unknown origin) kinase activity using poly(Glu-Tyr) at 4:1 ratio as substrate in presence of ATP incubated for 30 mins by HTRF assay
Quick reference for IC50 among some molecules

{"Mol": "COc1cc2c(Oc3ccc(N/C=C4\\C(=O)N(c5ccccc5C(F)(F)F)N=C4C)cc3F)ccnc2cc1OCCCN1CCOCC1", "Unit Tag": "nM", "IC50": 2.2}
{"Mol": "COc1cc2c(Oc3ccc(NC(=O)c4cn(-c5ccccc5C(F)(F)F)c5ccccc5c4=O)cc3F)ccnc2cc1OCCCN1CCCCC1", "Unit Tag": "nM", "IC50": 1.35}
{"Mol": "COc1cc2c(Oc3ccc(NC(=O)Nc4nc5c(C)ccc(C)c5s4)cc3F)ccnc2cc1OCCCN1CCN(C)CC1", "Unit Tag": "nM", "IC50": 17.6}

###

Target: UniProt:P08581
Assay: Inhibition of c-Met (unknown origin) kinase activity using peptide as substrate in presence of ATP incubated for 1 hrs by ELISA

{"Mol": "Clc1ccc(-c2cn3cccc(COc4nnc5ccc(Cl)nn45)c3n2)c(Cl)c1", "Experimental Target": "UniProt:P08581", "IC50": "53.4 nM"}

###

Molecular target: Hepatocyte growth factor receptor (Homo sapiens, UniProt P08581)
Test: Inhibition of recombinant c-Met (unknown origin) using peptide as substrate in presence of ATP by TR-FRET assay

{"Mol": "Cn1cc(-c2ccc(=O)n(C[C@@H]3CN(c4ncc(OCC5CCNCC5)cn4)CCO3)n2)cn1", "IC50 (nM)": 19}

###

Quick reference for IC50 among some compounds
System: HeLa
Assay: Antiproliferative activity against human HeLa cells assessed as reduction in cell viability incubated for 24 hrs by MTT assay
Assay type: functional, cell-based
Reported Metric: IC50 (µM)

{"Compound": "CC(C)=C1C/C=C(\\C)CC/C=C(\\C)CC1OC(=O)c1ccc(C)cc1 (configuration not stated)", "Unit Tag": "µM", "Reported": 83.6}
{"Compound": "CC(C)=C1C/C=C(\\C)CC/C=C(\\C)CC1OS(=O)(=O)c1ccc(C)cc1 (configuration not stated)", "Unit Tag": "µM", "Reported": 88.6}

###

Quick reference for IC50 among some compounds
Target: Hepatocyte growth factor receptor (Homo sapiens, UniProt P08581)
Assay: Inhibition of c-Met (unknown origin) using poly(Glu-Tyr) at 4:1 ratio as substrate in presence of ATP incubated for 60 mins by ELISA

{"Mol": "COC(=O)c1ccc(N2NC(=O)/C(=C/c3ccc(-c4ccc(Cl)c(C(=O)O)c4)o3)C2=O)cc1", "IC50 / µM": 9.5}
{"Mol": "Cc1ccc(N2NC(=O)/C(=C/c3ccc(-c4cc([N+](=O)[O-])ccc4O)o3)C2=O)cc1C", "IC50 / µM": 0.46}

###

Test system: BaF3
Assay: cells
Conditions: Mus musculus, BaF3, 72 h
pIC50: −log10 of the molar value.

{"Mol": "Cc1c(C(=O)Nc2ccc(Oc3ccnc(-c4nncn4CCCN4CCN(C)CC4)c3)c(F)c2)c(=O)n(-c2ccccc2)n1C", "Experimental Target": "BaF3", "pIC50": 6.89}
